# measurement-protocol: Nuclear factor erythroid 2-related factor 2/antioxidant responsive element (Nrf2/ARE) small molecule agonists: luciferase reporter gene qHTS assay in human keratinocytes (AID 1919969); also: nearly all actives have a fitted effect of over 35% in size; also: potency is read from the fitted curve at half-maximal effect
# test-conditions: KeratinoSens HaCaT ARE-luciferase, luminescence, 24 h; series mostly up to 92.4 µM
Records with an inconclusive call do not appear. Activity calls are given as the source filed them. Calls follow the shape of the full dose curve.
assay-readout: Potency

# annotated cases, reported Potency shown
molecule=CCCCOc1ccc(CC(=O)NO)cc1 assay_readout=Potency result_value=inactive
molecule=Oc1ccc(Cl)cc1C1CCCC1 assay_readout=Potency result_value=inactive
molecule=O=C(Cl)c1c(Cl)cccc1Cl assay_readout=Potency result_value=inactive
molecule=Cc1ccc(S(=O)(=O)NC(=O)NC2CCCCC2)cc1 assay_readout=Potency result_value=inactive
molecule=CCn1nc(C)c2c1C(=O)NCC(c1ccc(O)cc1)=N2 assay_readout=Potency result_value=inactive
molecule=CC[N+](CC)(CC)CCOC(=O)C(C1CCCC1)C1CCCC1 assay_readout=Potency result_value=inactive
molecule=CCSCC assay_readout=Potency result_value="72.5 µM (active)"
molecule=O=C1CCCc2c1cc1ccc3cccc4ccc2c1c34 assay_readout=Potency result_value="34.8 µM (active)"
molecule=BrCCOc1ccccc1 assay_readout=Potency result_value=inactive
molecule=OCCN1CCN(CC/C=C2/c3ccccc3Sc3ccc(C(F)(F)F)cc32)CC1 assay_readout=Potency result_value=inactive

CC1=C(C(=O)O)N2C(=O)[C@@H](NC(=O)[C@H](N)C3=CCC=CC3)[C@H]2SC1 yielded Potency of inactive

CC1(C)CCC[C@]2(C)[C@H]3CCO[C@]3(C)CC[C@@H]12 yielded Potency of inactive

Cc1ccc(C#N)cc1 yielded Potency of inactive

O=C(O)CCc1nc(-c2ccccc2)c(-c2ccccc2)o1 yielded Potency of inactive

CN(C)c1ccc(O)c2c1C[C@H]1C[C@H]3[C@H](N(C)C)C(=O)C(C(N)=O)=C(O)[C@@]3(O)C(=O)C1=C2O yielded Potency of inactive

Oc1c(Cl)cc(Cl)c2cccnc12 yielded Potency of 0.188 µM (active)

CCOCN(C(=O)CS(=O)(=O)O)c1c(C)cccc1CC yielded Potency of inactive

C#C[C@]1(O)CC[C@H]2[C@@H]3CCc4cc(OC5CCCC5)ccc4[C@H]3CC[C@@]21C yielded Potency of inactive

CC(C)=CC=O yielded Potency of inactive

CCN[C@H]1C[C@H](C)S(=O)(=O)c2sc(S(N)(=O)=O)cc21 yielded Potency of inactive

CN(C)CC[C@@H](c1ccc(Br)cc1)c1ccccn1 yielded Potency of inactive

CCCCCCOC(=O)CC(CC(=O)OCCCCCC)(OC(=O)CCC)C(=O)OCCCCCC yielded Potency of inactive

[Ca+2] yielded Potency of inactive

Cc1oc(-c2ccccc2)nc1CCOc1cccc2c1ccn2CCC(=O)O yielded Potency of inactive

CCNC(=O)NCc1cccc(Cl)c1 yielded Potency of inactive

O=c1[nH]sc2ccccc12 yielded Potency of 12.2 µM (active)

CCOc1ccc2nc(S(N)(=O)=O)sc2c1 yielded Potency of 6.68 µM (active)

Cc1cc(C)c(N)cc1C yielded Potency of inactive

N#Cc1nc(Cl)c(Cl)c(Cl)c1Cl yielded Potency of 2.43 µM (active)
